The reported measurements were obtained from patent US11485725B2.

Test system: HCT116 (colorectal cancer) cells
Test: Resazurin-based cell viability assay using colorectal cancer cells
Settings: Homo sapiens, HCT-116, 72 hr incubation
Recorded IC50 determines the group label, using class A (below 2 µM), class B (2 µM to below 5 µM), class C (5 µM or more)

Sample answers from the record:
# COMPOUND, LABEL
records = [
    ("O=C(/C=C/c1ncccn1)N1CCC=C(Cl)C1=O", "class A"),
    ("Cn1cc(/C=C(/C(=O)N2CCC=CC2=O)c2ccccc2)cn1", "class C"),
    ("O=C1C=CCCN1C(=O)/C=C/C1CCN(c2ccccn2)CC1", "class B"),
]

Tag the class for COc1cc(/C=C/C(=O)N2CC(O)C=CC2=O)cc2c1OCCO2 (stereo not shown) class B

Tag the class for "Cn1cc(/C=C/S(=O)(=O)N2CCC=CC2=O)cn1" class B

Tag the class for "O=C1C=CCCN1C(=O)/C=C/c1cnn(CC(F)(F)F)c1" class C

Tag the class for "C/C(=C\c1ncccn1)C(=O)N1CCC=C(Cl)C1=O" class A

Tag the class for "O=C1C=CCCCN1S(=O)(=O)/C=C/c1ccccc1" class C
